- target or system: protein-protein interaction between Kras and SOS1 (biotin-tagged human Kras loaded with GDP, His-tagged human SOS1) (Homo sapiens (Human), UniProt P01116, G12D)
- experiment summary: Protein-protein interaction inhibition between Kras and SOS1 (KrasG12D-SOS PPI) using AlphaScreen;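 note: kras produced in E. coli, Ni-coupled donor beads and streptavidin acceptor beads, excitation 680 nm with emission detected at 520–620 nm via singlet oxygen transfer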
- Type: biochemical
- test settings: AlphaScreen; biotin-tagged human Kras loaded with GDP, His-tagged human SOS1; read-out: KRAS G12D-SOS PPI IC50
Bridge positions count the residues as written; N and C are the ends. Square brackets hold non-standard residues; d marks the D form. Peptide text beside a SMILES is read from it. * marks the point of attachment. hPhe(3-Cl-4-CF3) = N[C@@H](CCc1ccc(C(F)(F)F)c(Cl)c1)C(=O)O; NMePhe(4-CF3) = CN[C@@H](Cc1ccc(C(F)(F)F)cc1)C(=O)O; NMeGly(cBu) = CN[C@H](C(=O)O)C1CCC1; NMeCha = CN[C@@H](CC1CCCCC1)C(=O)O; NMehLeu = CN[C@@H](CCC(C)C)C(=O)O; NMeI = CC[C@H](C)[C@H](NC)C(=O)O; NMeD = CN[C@@H](CC(=O)O)C(=O)O; NMeA = CN[C@@H](C)C(=O)O; Piperidide = C1CCN(*)CC1; Pyrrolidide = C1CCN(*)C1; Ac5c = NC1(C(=O)O)CCCC1; Aze = O=C(O)[C@@H]1CCN1; Sar = CNCC(=O)O
measure: IC50 (nM)
Give bare numbers, in nM.

Ask: Which IC50 value is on record for CC[C@H](C)[C@@H]1NC(=O)[C@H](C2CCC2)N(C)C(=O)C[C@@H](C(=O)N2CCCCC2)N(C)C(=O)[C@H]([C@@H](C)CC)N(C)C(=O)C2(CCCC2)NC(=O)[C@@H]2CCCN2C(=O)[C@H](CCc2ccc(C(F)(F)F)c(Cl)c2)NC(=O)CN(C)C(=O)[C@H](CC2CCCCC2)N(C)C(=O)[C@@H]2CCN2C(=O)[C@H](C)N(C)C1=O [Compound 959] ([NMeGly(cBu)]I[NMeA][Aze][NMeCha][Sar][hPhe(3-Cl-4-CF3)]P[Ac5c][NMeI][NMeD]-Piperidide; lactam N-11) ?
Reply: 1.4

Attention now turns to another entry.
Ask: Which IC50 value is on record for CC[C@H](C)[C@@H]1NC(=O)[C@H](CCC(C)C)N(C)C(=O)C[C@@H](C(=O)N2CCCC2)N(C)C(=O)[C@H]([C@@H](C)CC)N(C)C(=O)C2(CCCC2)NC(=O)[C@@H]2CCCN2C(=O)[C@H](CCc2ccc(C(F)(F)F)c(Cl)c2)NC(=O)CN(C)C(=O)[C@H](Cc2ccc(C(F)(F)F)cc2)N(C)C(=O)[C@@H]2CCN2C(=O)[C@H](C)NC1=O [Compound 1310] ([NMehLeu]IA[Aze][NMePhe(4-CF3)][Sar][hPhe(3-Cl-4-CF3)]P[Ac5c][NMeI][NMeD]-Pyrrolidide; lactam N-11) ?
Reply: 0.87

From: patent US20240148821A1
